Test system: Enterobacter cloacae
Assay: Antibacterial activity against Enterobacter cloacae 34 after 18 to 24 hrs by agar dilution method
Assay type: functional
experimental.endpoint: MIC (µg/mL)
Express it in µg/mL; write the number only.

API: value(readout= MIC, system= Enterobacter cloacae, query= "C[C@@H](O)[C@H]1C(=O)N2C(C(=O)O)=C(S[C@@H]3CN[C@H](C(=O)N(C)C)C3)[C@H](C)[C@H]12" )
0.025

API: value(readout= MIC, system= Enterobacter cloacae, query= C[C@@H](O)C1C(=O)N2C(C(=O)O)=C(S[C@@H]3CN[C@H](CN4CCN(C)S4(=O)=O)C3)[C@H](C)C12 (some centres undefined) )
0.049

API: value(readout= MIC, system= Enterobacter cloacae, query= C[C@@H](O)[C@H]1C(=O)N2C(C(=O)O)=C(SCCNC=N)C[C@H]12 [IMIPENEM ANHYDROUS] )
0.781

API: value(readout= MIC, system= Enterobacter cloacae, query= C[C@@H](O)C1C(=O)N2C(C(=O)O)=C(S[C@@H]3CN[C@H](CN4CC(C)(C)NS4(=O)=O)C3)[C@H](C)C12 (some centres undefined) )
0.098
